# Z (valence), fit of the Woodhull equation listing for each entry below
Target: IRK1 channels (Mus musculus, UniProt P35561)
Construct: expressed in transfected cells; host or cells: Xenopus laevis oocytes injected with IRK1 cRNA; inside-out patches
Sequence (P35561 whole entry): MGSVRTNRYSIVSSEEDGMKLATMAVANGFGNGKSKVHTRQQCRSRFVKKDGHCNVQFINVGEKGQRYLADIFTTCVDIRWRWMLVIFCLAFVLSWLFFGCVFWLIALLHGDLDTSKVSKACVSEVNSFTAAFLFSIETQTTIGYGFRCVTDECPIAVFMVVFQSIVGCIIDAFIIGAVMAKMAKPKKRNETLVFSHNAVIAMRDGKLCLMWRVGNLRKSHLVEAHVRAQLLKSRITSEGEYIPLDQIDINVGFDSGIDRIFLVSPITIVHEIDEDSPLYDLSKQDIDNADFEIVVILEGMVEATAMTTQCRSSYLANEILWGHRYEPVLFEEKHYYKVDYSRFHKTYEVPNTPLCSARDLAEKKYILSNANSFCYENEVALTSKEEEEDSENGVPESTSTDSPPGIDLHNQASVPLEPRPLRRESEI
Experiment: Block of IRK1 currents by intracellular chemicals, inside-out patches of Xenopus oocytes injected with IRK1 cRNA
Type: cell-based
Settings: intracellular blocker
Response field accepts a number only; no unit should be typed.

As a guide, the following entries are already answered.
In [3]: df
Out[3]:
                                   molecule  numeric_value
0  OCCN1CCNCC1 [HEP, hydroxyethyl piperazine]           1.09
1                     C1CNCCN1 [piperazine]           1.08
2         O=S(=O)(O)CCN1CCN(CCO)CC1 [HEPES]           1.02

We now examine a further molecule.
The molecule [Mg+2] [Mg^2+] showed Z (valence), fit of the Woodhull equation equal to 1.1
